Field: glycan array binding signal (z-score). Provide a value for each of the binders that follow.
# test_target: Neu5Ac(a2-3)Gal(b1-4)[Fuc(a1-3)]GlcNAc(b1-3)Gal(b1-4)[Fuc(a1-3)]GlcNAc(b1-3)Gal(b1-4)[Fuc(a1-3)]GlcNAc
# method_description: glycan array binding signal (z-score within array); higher = stronger binding
# condition_details: glycan notation: IUPAC condensed, linker removed
Shown is part of a subset that was picked to be rich in the strongest signals.
Number only, please.

Query :: # lookup: glycan array binding signal (z-score) of SP15308C-bot-338-23-338 (Bacteroides ovatus) (protein) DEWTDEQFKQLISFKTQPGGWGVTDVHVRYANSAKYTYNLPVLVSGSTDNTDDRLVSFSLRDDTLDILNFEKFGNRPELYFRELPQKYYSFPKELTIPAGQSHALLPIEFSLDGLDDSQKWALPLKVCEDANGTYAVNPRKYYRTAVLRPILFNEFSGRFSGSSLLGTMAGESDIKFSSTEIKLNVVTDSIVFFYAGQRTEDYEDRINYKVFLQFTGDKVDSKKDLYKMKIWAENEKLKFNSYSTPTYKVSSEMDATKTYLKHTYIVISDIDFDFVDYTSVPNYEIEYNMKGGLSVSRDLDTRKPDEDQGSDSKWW
Result :: -0.739

Query :: Value lookup for glycan array binding signal (z-score); key = CD83 (Homo sapiens) (protein) MSRGLQLLLLSCAYSLAPATPEVKVACSEDVDLPCTAPWDPQVPYTVSWVKLLEGGEERMETPQEDHLRGQHYHQKGQNGSFDAPNERPYSLKIRNTTSCNSGTYRCTLQDPDGQRNLSGKVILRVTGCPAQRKEETFKKYRAETSEQKLISEEDLSRGSDDDDKAEPRGP
Result :: -0.243

Query :: Fill in: glycan array binding signal (z-score) of FBG3 (Homo sapiens), Q9H4M3 (protein) MAVGNINELPENILLELFTHVPARQLLLNCRLVCSLWRDLIDLVTLWKRKCLREGFITEDWDQPVADWKIFYFLRSLHRNLLHNPCAEEGFEFWSLDVNGGDEWKVEDLSRDQRKEFPNDQVKKYFVTSYYTCLKSQVVDLKAEGYWEELMDTTRPDIEVKDWFAARPDCGSKYQLCVQLLSSAHAPLGTFQPDPATIQQKSDAKWREVSHTFSNYPPGVRYIWFQHGGVDTHYWAGWYGPRVTNSSITIGPPLP is ___
Result :: -0.514

Query :: Quick one: glycan array binding signal (z-score) for cFel (Cyprinus carpio), P68512 (protein) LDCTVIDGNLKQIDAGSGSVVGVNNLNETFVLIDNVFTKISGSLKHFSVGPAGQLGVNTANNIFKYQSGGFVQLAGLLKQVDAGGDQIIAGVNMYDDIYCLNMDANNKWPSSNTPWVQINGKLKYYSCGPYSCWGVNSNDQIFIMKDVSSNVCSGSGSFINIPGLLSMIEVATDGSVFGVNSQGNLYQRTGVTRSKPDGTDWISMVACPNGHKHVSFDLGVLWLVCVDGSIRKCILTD ?
Result :: -1.09

Query :: Need glycan array binding signal (z-score), item CTLY 1 (Homo sapiens), Q6ZS10 (protein) AITCPEGWLPFEGKCYYFSPSTKSWDEARMFCQENYSHLVIINSFAEHNFVAKAHGSPRVYWLGLNDRAQEGDWRWLDGSPVTLSFWEPEEPNNIHDEDCATMNKGGTWNDLSCYKTTYWICERKGLNDIFEAQKIEWHE
Result :: 1.04

Query :: Need glycan array binding signal (z-score), item Gal 1 (Mus musculus), P16045 (protein) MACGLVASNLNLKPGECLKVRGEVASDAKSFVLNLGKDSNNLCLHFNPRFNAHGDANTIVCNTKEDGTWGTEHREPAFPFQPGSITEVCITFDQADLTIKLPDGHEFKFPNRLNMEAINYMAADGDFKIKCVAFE
Result :: -0.083

Where do the numbers come from? From the supplement of paper PMC8728848.
